Data provenance is paper PMC11189558.

target: STK19 (31-254) (human, UniProt P49842 31-254); assay: EMSA; n = 4; 20 mM HEPES pH 7.4, 100 mM NaCl, 1 mM MgCl2, 1 mg/ml BSA, 2 mM DTT, 5% glycerol; 30 min on ice; native 5% PAGE in 1X TBE; conditions: protein: recombinant; tags: GST cleaved; GPLGS left at N-terminus; label: 5' IRDye 700
Sequence (P49842 31-254): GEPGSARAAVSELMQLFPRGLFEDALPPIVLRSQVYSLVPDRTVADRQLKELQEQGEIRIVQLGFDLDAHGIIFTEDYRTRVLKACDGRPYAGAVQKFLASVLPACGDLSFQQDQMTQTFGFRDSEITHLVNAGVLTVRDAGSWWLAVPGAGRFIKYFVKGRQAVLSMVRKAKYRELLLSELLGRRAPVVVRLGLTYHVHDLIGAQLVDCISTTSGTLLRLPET
MEASURED ENDPOINT: Kd

* TTTTTTTTTTTTTTTTTTTTTTTTTTTTTT (ssDNA) [ssDNA dT30] | 14.1 µM
